Target: human (hACC2) (Homo sapiens, UniProt O00763)
Sequence (O00763 whole entry): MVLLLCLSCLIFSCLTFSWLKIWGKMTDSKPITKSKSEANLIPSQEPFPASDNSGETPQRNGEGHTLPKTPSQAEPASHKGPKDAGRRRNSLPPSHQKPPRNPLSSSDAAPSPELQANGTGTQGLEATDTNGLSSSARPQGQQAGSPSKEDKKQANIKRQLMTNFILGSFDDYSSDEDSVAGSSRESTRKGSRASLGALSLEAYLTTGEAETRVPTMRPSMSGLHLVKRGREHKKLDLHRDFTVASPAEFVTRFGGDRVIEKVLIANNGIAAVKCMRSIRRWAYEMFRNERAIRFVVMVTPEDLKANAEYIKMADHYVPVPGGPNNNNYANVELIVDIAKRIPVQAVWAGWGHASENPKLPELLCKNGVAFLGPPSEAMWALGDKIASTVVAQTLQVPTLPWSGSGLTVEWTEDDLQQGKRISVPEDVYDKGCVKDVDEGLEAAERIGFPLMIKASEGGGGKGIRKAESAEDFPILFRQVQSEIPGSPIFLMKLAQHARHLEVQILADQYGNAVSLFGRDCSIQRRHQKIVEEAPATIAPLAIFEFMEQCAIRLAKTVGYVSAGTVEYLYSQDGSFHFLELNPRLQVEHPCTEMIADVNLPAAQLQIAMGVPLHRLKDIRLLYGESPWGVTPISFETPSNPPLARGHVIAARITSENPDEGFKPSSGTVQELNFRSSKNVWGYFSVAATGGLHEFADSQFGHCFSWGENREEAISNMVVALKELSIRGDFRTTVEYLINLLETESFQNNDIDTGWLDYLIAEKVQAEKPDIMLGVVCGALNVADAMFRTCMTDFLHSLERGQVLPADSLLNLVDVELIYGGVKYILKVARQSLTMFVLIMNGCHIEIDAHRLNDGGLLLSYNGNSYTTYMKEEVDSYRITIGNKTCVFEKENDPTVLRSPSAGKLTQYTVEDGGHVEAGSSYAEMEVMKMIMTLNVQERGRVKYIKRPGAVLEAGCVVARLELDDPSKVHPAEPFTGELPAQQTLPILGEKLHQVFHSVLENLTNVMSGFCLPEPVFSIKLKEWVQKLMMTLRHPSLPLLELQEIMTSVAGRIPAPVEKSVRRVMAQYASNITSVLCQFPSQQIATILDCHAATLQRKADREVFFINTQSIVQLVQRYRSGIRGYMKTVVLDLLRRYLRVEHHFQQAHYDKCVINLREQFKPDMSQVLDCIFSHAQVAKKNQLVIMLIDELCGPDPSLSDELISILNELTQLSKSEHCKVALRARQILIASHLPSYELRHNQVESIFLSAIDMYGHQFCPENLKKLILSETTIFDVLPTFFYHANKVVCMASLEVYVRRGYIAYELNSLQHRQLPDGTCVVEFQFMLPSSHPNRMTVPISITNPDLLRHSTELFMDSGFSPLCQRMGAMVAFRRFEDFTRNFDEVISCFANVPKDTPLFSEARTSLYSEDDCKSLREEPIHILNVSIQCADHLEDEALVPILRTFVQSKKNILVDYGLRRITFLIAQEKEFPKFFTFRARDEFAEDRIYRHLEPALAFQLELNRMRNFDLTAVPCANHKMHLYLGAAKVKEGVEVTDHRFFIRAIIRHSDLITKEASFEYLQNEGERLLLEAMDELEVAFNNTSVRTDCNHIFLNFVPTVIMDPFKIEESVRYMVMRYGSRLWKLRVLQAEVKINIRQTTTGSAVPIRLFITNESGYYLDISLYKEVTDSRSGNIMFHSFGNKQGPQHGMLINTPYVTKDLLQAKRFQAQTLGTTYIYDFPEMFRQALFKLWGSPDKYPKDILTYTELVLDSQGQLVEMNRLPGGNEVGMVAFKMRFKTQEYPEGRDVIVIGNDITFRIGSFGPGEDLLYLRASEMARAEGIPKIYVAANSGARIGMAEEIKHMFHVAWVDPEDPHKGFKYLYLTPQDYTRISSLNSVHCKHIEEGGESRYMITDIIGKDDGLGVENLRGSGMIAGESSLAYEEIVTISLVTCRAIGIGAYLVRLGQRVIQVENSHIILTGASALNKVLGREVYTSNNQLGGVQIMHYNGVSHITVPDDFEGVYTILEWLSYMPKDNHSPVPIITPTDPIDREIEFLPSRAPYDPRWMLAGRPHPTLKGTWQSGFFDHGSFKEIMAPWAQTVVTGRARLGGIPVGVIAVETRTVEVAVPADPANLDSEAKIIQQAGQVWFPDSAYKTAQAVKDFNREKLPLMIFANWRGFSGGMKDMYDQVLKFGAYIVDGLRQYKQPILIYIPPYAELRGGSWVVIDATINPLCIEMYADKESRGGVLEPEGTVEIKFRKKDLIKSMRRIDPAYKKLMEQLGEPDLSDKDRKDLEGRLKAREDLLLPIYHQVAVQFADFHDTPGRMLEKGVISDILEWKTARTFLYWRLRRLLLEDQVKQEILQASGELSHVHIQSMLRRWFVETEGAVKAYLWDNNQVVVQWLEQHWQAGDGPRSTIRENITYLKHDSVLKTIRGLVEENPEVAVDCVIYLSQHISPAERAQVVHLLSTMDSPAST
Test: In vitro ACC inhibition assay (ADP-Glo), hACC2
Format: biochemical
Details: Table 2a, 5 nM ACC2, 20 μM ATP, 20 μM acetyl-CoA
recordedEndpoint: IC50

// worked examples, IC50 included
- chemSmiles: "COCCO[C@@H](Cn1c(=O)n(C(C)(C)C(=O)NC2CCCCC2)c(=O)c2c(C)c(-n3nccn3)sc21)c1cc(F)ccc1OC"
  recordedEndpoint: "IC50"
  result: "10 to 40 nM"
- chemSmiles: "COc1ccc(F)cc1[C@H](Cn1c(=O)n(C(C)(C)C(=O)NC2CCC2)c(=O)c2c(C)c(-n3nccn3)sc21)OC1CCOCC1"
  recordedEndpoint: "IC50"
  result: "5 to 10 nM"
- chemSmiles: "CCc1ccc(F)cc1[C@H](Cn1c(=O)n(C(C)(C)C(=O)O)c(=O)c2c(C)c(-n3nccn3)sc21)OCCO"
  recordedEndpoint: "IC50"
  result: "1 to 5 nM"

Record IC50 per entry; entries follow.
1. CNC(=O)C(C)(C)n1c(=O)c2c(C)c(-n3nccn3)sc2n(C[C@H](OCCC#N)c2ccccc2OC)c1=O
2. COc1ccc(F)cc1[C@H](Cn1c(=O)n(C(C)(C)C(=O)NC(C)C)c(=O)c2c(C)c(-n3nccn3)sc21)OCCCO

Output:
5 to 10 nM
1 to 5 nM
